Test system: cardiac fractional shortening
test description: Echocardiography of rat cardiac contractility, oral dosing
Assay type: in vivo, Sprague Dawley rats
applied conditions: Rattus norvegicus; oral dosing; read-out: estimated IC50 (plasma concentration, fractional shortening)
measured attribute: IC50 (nM)
# number only, unit nM dropped from output

Data request: Look up IC50 for this compound: `CC(C)c1nc(-c2ccc3c(c2)CC[C@H]3NC(=O)c2nnn(C)n2)no1`
Data returned: 2900
